Data provenance: paper PMC11363325

# Run description: Stability of OSC-GCDIs in human serum
# Assay type: in vitro ADME
# Particulars: 200 μM prodrug, 37 °C
# Procedure: Stability of OSC-GCDIs in serum Stability of the GCDI prodrugs were examined by incubating prodrugs in human and BALB/c serum at 37 °C and 200 μM final concentration. Briefly, each prodrug was dissolved in DMSO to be 20 mM concentration, then 10 μL of each prodrug solution was mixed with 990 μL of serum. At different time intervals, 100 μL of the samples were taken and mixed with 100 μL of MeCN. […]
Would you kindly list half-life at 200 μM for each of these compounds?
Write it as a number; the unit min goes unstated.

Reported half-life at 200 μM ( "CCC(CC)O[C@@H]1C=C(C(=O)O)C[C@H](N=C(N2C(=O)[C@H]3CCCC[C@H]3C2=O)N2C(=O)[C@H]3CCCC[C@H]3C2=O)[C@H]1NC(C)=O" ) = 26.2

Recorded result, "CCC(CC)O[C@@H]1C=C(C(=O)O)C[C@H](N=C(N2C(=O)CC(C)(C)C2=O)N2C(=O)CC(C)(C)C2=O)[C@H]1NC(C)=O" , half-life at 200 μM: 117

Documented half-life at 200 μM of CCCCC1CC(=O)N(C(=N[C@H]2CC(C(=O)O)=C[C@@H](OC(CC)CC)[C@@H]2NC(C)=O)N2C(=O)CC(CCCC)C2=O)C1=O (stereo partly shown) : 52.5

Lab note: "CCC(CC)O[C@@H]1C=C(C(=O)O)C[C@H](N=C(N2C(=O)c3ccccc3C2=O)N2C(=O)c3ccccc3C2=O)[C@H]1NC(C)=O" gave half-life at 200 μM of 1.3

----------
# Run description: in vitro
# Particulars: dog
Quantity: CC50

Reported CC50 of CCC(CC)O[C@@H]1C=C(C(=O)O)C[C@H](NC(=N)N)[C@H]1NC(C)=O [GOC, guanidino oseltamivir carboxylate, reference compound] : > 100 µM

----------
# Run description: physchem
# Type: physicochemical
Quantity: logP
Would you mind answering with just the numeric figure?

Briefly, logP measured for CCOC(=O)C1=C[C@@H](OC(CC)CC)[C@H](NC(C)=O)[C@@H](N)C1 [OS-P, Oseltamivir phosphate, reference compound] : 0.22

response.value for CCCCC1CC(=O)N(C(=N[C@H]2CC(C(=O)O)=C[C@@H](OC(CC)CC)[C@@H]2NC(C)=O)N2C(=O)CC(CCCC)C2=O)C1=O (some centres unmarked) (field: logP) = 1.83

Summary for this compound, "CCC(CC)O[C@@H]1C=C(C(=O)O)C[C@H](N=C(N2C(=O)CC(C)(C)C2=O)N2C(=O)CC(C)(C)C2=O)[C@H]1NC(C)=O" : logP is 0.98

// sample "CCC(CC)O[C@@H]1C=C(C(=O)O)C[C@H](N=C(N2C(=O)c3ccccc3C2=O)N2C(=O)c3ccccc3C2=O)[C@H]1NC(C)=O" , its logP was 1.61

// sample "CCC(CC)O[C@@H]1C=C(C(=O)O)C[C@H](N=C(N2C(=O)[C@H]3CCCC[C@H]3C2=O)N2C(=O)[C@H]3CCCC[C@H]3C2=O)[C@H]1NC(C)=O" , its logP was 1.33

----------
# Test system: A/Puerto Rico/8/1934 (PR8; H1N1)
# Run description: microbe, parasite or virus in culture
# Particulars: Influenza A virus, MDCK
Quantity: pEC50
Note on pEC50: it is the negative log10 of concentration, concentration in mol/L.

Input CCC(CC)O[C@@H]1C=C(C(=O)O)C[C@H](N)[C@H]1NC(C)=O [OSC, oseltamivir carboxylate, reference compound] . Output pEC50: 7.00

Record CCC(CC)O[C@@H]1C=C(C(=O)O)C[C@H](NC(=N)N)[C@H]1NC(C)=O [GOC, guanidino oseltamivir carboxylate, reference compound] . Reported pEC50: 8.30

Noted for CCC(CC)O[C@@H]1C=C(C(=O)O)C[C@H](N=C(N2C(=O)[C@H]3CCCC[C@H]3C2=O)N2C(=O)[C@H]3CCCC[C@H]3C2=O)[C@H]1NC(C)=O [OSC-GCDI(C)] : its pEC50 reads 8.00

Record CCC(CC)O[C@@H]1C=C(C(=O)O)C[C@H](N=C(N2C(=O)CC(C)(C)C2=O)N2C(=O)CC(C)(C)C2=O)[C@H]1NC(C)=O [OSC-GCDI(D)] . Reported pEC50: 7.15

Value of pEC50 reported for the molecule CCCCC1CC(=O)N(C(=N[C@H]2CC(C(=O)O)=C[C@@H](OC(CC)CC)[C@@H]2NC(C)=O)N2C(=O)CC(CCCC)C2=O)C1=O (stereo partly shown) [OSC-GCDI(B)] is 7.05

For this molecule ( CCC(CC)O[C@@H]1C=C(C(=O)O)C[C@H](N=C(N2C(=O)c3ccccc3C2=O)N2C(=O)c3ccccc3C2=O)[C@H]1NC(C)=O [OSC-GCDI(P)] ), measured pEC50 is 7.52
